# System: SNB-75 CNS
# assay explanation: NCI-60 one-dose screen, 48 h
# settings: 10 µM unless noted
This is part of a sample that, as a whole, favours compounds with a hit. Of some 83,000 tested, about 20% had one in any assay. Activity calls are given as the source filed them. Rule for the calls: active = growth percent below 10; inactive = the rest.
Could you please pick one outcome from this set? Y for active, N for inactive

Below, 8 compounds whose answers are already recorded.
CC1(C)C=Cc2c(ccc3c2[N+]([O-])=C2C3=C[C@@]34NC(=O)[C@]5(CCCN5C3=O)C[C@@H]4C2(C)C)O1 | N
CC[C@H](C)[C@H](NC(=O)C12CC(NC)(C1)C2)C(=O)N(C)[C@H](C[C@@H](OC(C)=O)c1nc(C(=O)N[C@@H](Cc2ccccc2)C[C@H](C)C(=O)OC)cs1)C(C)C | N
O=S(OO)c1cc(Cl)c(O)c(Cl)c1 (centres undefined) | N
CC(Oc1ccc(-c2ccccc2)cc1)C(=O)O (centres undefined) | N
C/C(=C\c1ccn(-c2ccc(N)c(C(F)(F)F)c2)n1)[C@@H]1C[C@@H]2O[C@]2(C)CCC[C@H](C)[C@H](O)[C@@H](C)C(=O)C(C)(C)[C@@H](O)CC(=O)O1 | Y
CC[C@H](C)[C@H](NC(=O)[C@H]1CCCCN1C)C(=O)N(C)[C@H](C[C@@H](OC(C)=O)c1nc(C(=O)N[C@@H](Cc2ccccc2)C[C@H](C)C(=O)O)cs1)C(C)C | N
CCC(=O)C(CC(C)[N+](C)(C)C)(c1ccccc1)c1ccccc1 (centres undefined) | N
N#Cc1ccc(Cl)cc1 | N

Problem: Please state the recorded outcome for this compound: O=CC1(c2ccccc2)CCN(Cc2ccccc2)CC1
Solution: N

---

# Tested on: M14 melanoma
# assay explanation: NCI-60 one-dose screen, 48 h
# settings: 10 µM unless noted
This is part of a sample that, as a whole, favours compounds with a hit. Of some 83,000 tested, about 20% had one in any assay. Activity calls are given as the source filed them. Rule for the calls: active = growth percent below 10; inactive = the rest.
Hello, when you answer, please use one of the following outcomes: active, inactive

COc1ccc(C(C#N)C(C)=O)cc1 (stereo not given) | inactive
CC1=C2[C@H]3OC(=O)[C@@H](C)[C@@H]3CC[C@@]2(C)C=CC1=O | inactive
COC(=O)C1=CO[C@@H](C)[C@@H]2CN3CCc4c([nH]c5cc(OC)ccc45)[C@@H]3C[C@H]12 | inactive
CCCn1cc2c3c(cccc31)[C@H]1C[C@@H](C)CN(C)[C@@H]1C2 | inactive
O=NN(c1ccccc1)c1ccccc1 | inactive
CC(Oc1ccc(-c2ccccc2)cc1)C(=O)O (stereo not given) | inactive
[N-]=[N+]=CC(=O)CCC(=O)C=[N+]=[N-] | inactive
COc1ccc2c(c1)c(-c1nc(-c3c[nH]c4ncccc34)cs1)cn2CCCCN1CCOCC1 | active
CCCCS(=O)(=O)Cl | inactive
C[C@]12CCC(=O)C[C@@H]1CC[C@@H]1[C@@H]2CC[C@]2(C)[C@@H](OC(=O)N(CCCl)N=O)CC[C@@H]12 | inactive

Problem: What is the recorded call for this compound in the test? C[C@]12CC[C@H]3[C@@H](CC=C4c5nc(N)sc5CC[C@@]43C)[C@@H]1CC[C@@H]2O
Solution: inactive

Problem: Write down the call the test reported for this compound. Item: CO[C@@H]([CH2][Hg][O]C(=O)c1ccccc1)[C@@H]([CH2][Hg][O]C(=O)c1ccccc1)OC
Solution: inactive

Problem: For N[C@@H](CCC(=O)CCl)C(=O)O , what call appears in the results of this test?
Solution: inactive

---

# System: 786-0 renal
# assay explanation: NCI-60 one-dose screen, 48 h
# settings: 10 µM unless noted
The panel holds about 83,000 compounds, 20% with a hit somewhere; the sample as a whole holds those more often. Calls of active or inactive are those of the source. How the source made its calls: active means growth percent below 10; inactive means the rest.
Return exactly one item of active, inactive

Examples with answers:
O=P(O)(Nc1ccccc1)Nc1ccccc1 | inactive
O=NN1CCCCC1 | inactive
CN(C)c1ccc(N)cc1 | inactive

Problem: Which outcome was assigned to Cc1ccc(S(=O)(=O)n2cc([C@@]3(O)C[C@H](CSC#N)OC3=O)c3ccccc32)cc1 in this test?
Solution: inactive

Problem: How did this test come out for CN1CCN(c2ccc(Cl)cc2)CC1 ?
Solution: inactive

---

# System: RPMI-8226 leukemia
# assay explanation: NCI-60 one-dose screen, 48 h
# settings: 10 µM unless noted
This is part of a sample that, as a whole, favours compounds with a hit. Of some 83,000 tested, about 20% had one in any assay. Active and inactive are the calls of the source. Rule for the calls: active = growth percent below 10; inactive = the rest.
Parameter call: string, one of active, inactive

CC/C(Cc1ccccc1)=C(\c1ccc(OCCN2CCCC2)cc1)c1ccc(OC(=O)NCc2ccccc2)cc1 | active

Problem: Hey, what did the test say about C[C@]12CCc3sc(Nc4ccc(OC(F)(F)F)cc4)nc3C1=CC[C@@H]1[C@@H]2CC[C@]2(C)C(=O)CC[C@@H]12 ?
Solution: active

Problem: Which outcome did this test record for the compound Cn1cc(C(=O)C[n+]2ccccc2)c2ccccc21 ?
Solution: inactive

Problem: Hi, do you know how CCC(Br)(CC)C(=O)NC(N)=O came out in this test?
Solution: inactive

Problem: Fill in: this test's call for CC[C@H](C)[C@H](NC(=O)[C@H]1CCCCN1C)C(=O)N(C)[C@H](CCc1nc(C(=O)N[C@@H](Cc2ccccc2)C[C@H](C)C(=O)O)cs1)C(C)C is ___
Solution: inactive

---

# System: HCC-2998 colon
# assay explanation: NCI-60 one-dose screen, 48 h (100 = growth as untreated, 0 = no growth, -100 = all killed)
# settings: 10 µM unless noted
This is part of a sample that, as a whole, favours compounds with a hit. Of some 83,000 tested, about 20% had one in any assay. Active and inactive are the calls of the source. The calls were made as follows: active = growth percent below 10; inactive = the rest.
Would you kindly list growth for each of these molecules?

As a guide, the following entries are already answered.
O=S1(=O)OCCO1 | 110% (inactive)
CC[PH+](CC)CC.O=COC1OC([S-])C(OC=O)C(OC=O)C1OC=O.[Au+] (stereo unspecified) | -90% (active)
N#CC(N)c1ccccc1 (stereo unspecified) | 113% (inactive)
O=C/C=C/c1ccco1 | 106% (inactive)
O=C(O)C(F)F | 123% (inactive)

Provide each entry's growth from the list below.
1. Cc1cc[c-]cc1.Fc1c[c-]c(-c2ccccn2)c(F)c1.N#CCC[PH+](CCC#N)c1ccccc1.[Pt+2]
2. C[C@]12CC[C@H]3[C@@H](C[C@@H]4SC(Nc5cccc(F)c5)=N[C@@]45CC(=O)CC[C@]35C)[C@@H]1CCC2=O
3. COc1ccc(N(CC(=O)NCCC[Te]c2ccccc2)C(=O)c2ccccc2)cc1
4. Cc1cc(Br)c([N+](=O)[O-])cc1[N+](=O)[O-]

Solution:
1. 82.4% (inactive)
2. 75.5% (inactive)
3. 57.6% (inactive)
4. 111% (inactive)

---

# Tested on: SN12C renal
# assay explanation: NCI-60 one-dose screen, 48 h (100 = growth as untreated, 0 = no growth, -100 = all killed)
# settings: 10 µM unless noted
Compounds without any hit were thinned out: in the full panel of roughly 83,000, 20% have a hit.
measured quantity: growth (%)
Answers are plain numbers, in %.

Worked cases, growth given:
Cc1cc(NC(=O)NCCCOc2ccc(N3C(N)=NC(N)=NC3(C)C)cc2Cl)ccc1S(=O)(=O)F | 27.8
C=CCOC(=O)C(Br)CC (stereo not given) | 111
O=C(O)c1ccccc1N(CCO)CCCl | 98.3

For each of the items listed, what is its growth?
1. N#CCN(CC#N)[N+](=O)[O-]
2. O=C(O)C(F)F
3. COc1ccc2c(c1)c(-c1nc(-c3c[nH]c4ncccc34)cs1)cn2CCCCN1CCOCC1
4. CCOC(=O)c1ccccc1C(=O)OCC
5. N#Cc1ccc(Cl)cc1

Solution:
1. 94
2. 104
3. 61.9
4. 94.6
5. 107

Parameters: items (list). Returns: growth for each item.
1. c1ccc2c(c1)O[As](O[As]1Oc3ccccc3O1)O2
2. COC(=O)[C@@H](C)C[C@H](Cc1ccccc1)NC(=O)c1cccc([C@@H](C[C@H](C(C)C)N(C)C(=O)[C@@H](NC(=O)[C@H]2CCCCN2C)C2CC2)OC(C)=O)n1
3. N#CC(C#N)=C(C#N)C#N
4. O=c1c2ccccc2nc(-c2ccccc2Cl)n1-c1nnc(C(F)(F)F)s1
5. Cc1cc2c(cc1-c1ccnc(/C=C/C(=O)O)c1)C(C)(C)CCC2(C)C
6. CCCn1cc2c3c(cccc31)[C@H]1C[C@@H](C)CN(C)[C@@H]1C2
7. c1ccc2c(c1)sc1ccccc12

Solution:
1: 40.2; 2: 28.7; 3: 110; 4: 21.9; 5: 88; 6: 81.6; 7: 98.4

Please report growth for every entry that follows.
1. CO/N=C1\CC[C@]2(C)[C@H]3CC[C@]4(C)C(=O)CC[C@H]4[C@@H]3C[C@@H]3SC(N)=N[C@@]32C1
2. COC(=O)C1=CO[C@@H](C)[C@@H]2CN3CCc4c([nH]c5cc(OC)ccc45)[C@@H]3C[C@H]12
3. CC[C@H](C)[C@H]1O[C@]2(C=C[C@@H]1C)C[C@@H]1C[C@@H](C/C=C(\C)[C@@H](O[C@H]3C[C@H](OC)[C@@H](O[C@H]4C[C@H](OC)[C@@H](NC)[C@H](C)O4)[C@H](C)O3)[C@@H](C)/C=C/C=C3\CO[C@@H]4[C@H](O)C(C)=C[C@@H](C(=O)O1)[C@]34O)O2
4. CCCCS(=O)(=O)Cl
5. O=[P+](O)c1cccnc1
6. CCOC(=O)C1C(C=C(C)C)C1(C)C (stereo not given)

Solution:
1: 107; 2: 87.8; 3: -47.5; 4: 104; 5: 102; 6: 104
